# Experimental target: T1, human full-length C5 (human, UniProt P01031 19-673; P01031 678-1676)
# T1 construct: mature; also called uncleaved human C5; native, fully-folded human C5
# T1 sequence (P01031 19-673 limits assumed, chain 1 of 2): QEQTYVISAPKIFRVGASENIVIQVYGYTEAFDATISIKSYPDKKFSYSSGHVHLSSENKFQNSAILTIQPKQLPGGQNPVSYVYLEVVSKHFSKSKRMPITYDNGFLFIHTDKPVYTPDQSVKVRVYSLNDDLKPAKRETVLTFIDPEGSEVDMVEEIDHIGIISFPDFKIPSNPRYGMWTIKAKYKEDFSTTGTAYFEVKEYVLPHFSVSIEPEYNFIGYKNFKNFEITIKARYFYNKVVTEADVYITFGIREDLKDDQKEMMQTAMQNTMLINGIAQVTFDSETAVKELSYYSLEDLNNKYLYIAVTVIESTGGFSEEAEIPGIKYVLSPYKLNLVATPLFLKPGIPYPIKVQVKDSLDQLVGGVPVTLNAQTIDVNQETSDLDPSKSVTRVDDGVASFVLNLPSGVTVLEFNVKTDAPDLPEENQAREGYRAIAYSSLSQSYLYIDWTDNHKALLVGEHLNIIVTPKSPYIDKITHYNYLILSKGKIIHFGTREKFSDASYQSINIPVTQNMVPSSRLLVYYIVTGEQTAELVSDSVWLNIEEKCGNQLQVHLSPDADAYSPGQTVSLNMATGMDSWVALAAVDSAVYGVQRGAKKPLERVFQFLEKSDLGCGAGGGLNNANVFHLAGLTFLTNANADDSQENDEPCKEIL
# T1 sequence (P01031 678-1676 limits assumed, chain 2 of 2): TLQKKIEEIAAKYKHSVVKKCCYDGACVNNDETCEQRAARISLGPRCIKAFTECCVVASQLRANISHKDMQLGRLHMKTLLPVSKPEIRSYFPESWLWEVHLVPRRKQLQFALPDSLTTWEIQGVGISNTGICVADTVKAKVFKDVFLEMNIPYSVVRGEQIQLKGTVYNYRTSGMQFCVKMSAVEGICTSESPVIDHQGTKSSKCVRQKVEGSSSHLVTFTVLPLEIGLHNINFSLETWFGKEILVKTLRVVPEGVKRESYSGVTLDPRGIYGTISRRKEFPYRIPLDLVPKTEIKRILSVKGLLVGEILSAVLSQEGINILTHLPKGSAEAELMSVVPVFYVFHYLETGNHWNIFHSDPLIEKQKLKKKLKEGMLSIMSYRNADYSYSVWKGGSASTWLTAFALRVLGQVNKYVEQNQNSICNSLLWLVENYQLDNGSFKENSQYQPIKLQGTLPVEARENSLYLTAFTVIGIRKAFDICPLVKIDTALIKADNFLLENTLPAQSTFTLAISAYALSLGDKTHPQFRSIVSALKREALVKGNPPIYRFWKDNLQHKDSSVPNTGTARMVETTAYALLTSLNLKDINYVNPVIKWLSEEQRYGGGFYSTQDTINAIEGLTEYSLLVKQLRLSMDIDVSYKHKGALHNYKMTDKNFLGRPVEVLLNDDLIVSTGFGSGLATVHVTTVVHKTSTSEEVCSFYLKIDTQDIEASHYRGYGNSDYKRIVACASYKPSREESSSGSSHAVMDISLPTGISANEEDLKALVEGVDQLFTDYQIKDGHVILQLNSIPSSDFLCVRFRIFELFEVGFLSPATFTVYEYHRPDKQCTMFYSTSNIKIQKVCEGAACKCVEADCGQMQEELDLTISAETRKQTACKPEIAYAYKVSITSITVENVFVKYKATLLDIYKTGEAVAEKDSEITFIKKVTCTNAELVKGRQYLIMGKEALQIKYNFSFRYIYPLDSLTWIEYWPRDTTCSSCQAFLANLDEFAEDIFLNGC
# Procedure summary: Octet analysis

Binder	binding result
BNJ347 (antibody, V domains shown, also called BNJ347 humanized anti-C5a antibody) VH: QVQLVQSGAEVKKPGASVKVSCKASGYTFTDYSMDWVRQASGKGLEWMGAIHLNTGYTNYNQKFKGRVTITADESTSTAYMELSSLRSEDTAVYYCARGFYDGYSPMDYWGQGTTVTVSS VL: DIVMTQSPDSLAVSLGERATINCRASESVDSYGNSFMHWYQQKPGQPPKLLIYRASNLESGVPDRFSGSGSGTDFTLTISSLQAEDVAVYYCQQSNEDPYTFGGGTKVEIKR	no binding
BNJ354 (antibody, V domains shown, also called BNJ354 humanized anti-C5a antibody) VH: QVQLVQSGAEVKKPGASVKVSCKASGYTFTDYSMDWVRQASGKGLEWMGAIHLNTGYTNYNQKFKGRVTMTRDTSTSTVYMELSSLRSEDTAVYYCARGFYDGYSPMDYWGQGTTVTVSS VL: DIVMTQSPDSLAVSLGERATINCRASESVDSYGNSFMHWYQQKPGQPPKLLIYRASNLESGVPDRFSGSGSGTDFTLTISSLQAEDVAVYYCQQSNEDPYTFGGGTKVEIKR	no binding
